Can you tell me EC50 for the items I'm about to list?
- System: Dengue 3 virus MY05-34640-WT-C6/36
- protocol_summary: High-content imaging cell-based flavivirus immunodetection (HCl-CFI) assay, Dengue 3
- conditions: Dengue virus, A549, 48 h, read-out: Dengue 3 virus MY05-34640-WT-C6/36 in A549 using HCl [Inhibitor/IC50] Qualified AC50

Some solved cases for reference:
# input molecule: CC1(C)Cc2sc(NC(=O)Cc3ccc(S(N)(=O)=O)cc3)c(C#N)c2CN1Cc1cccc(F)c1 [Example 81] ; wanted: its EC50
< 100 nM

Report EC50 for CS(=O)(=O)c1ccc(CC(=O)Nc2sc3c(c2C#N)CCN(Cc2ccc(F)c(F)c2)C3)cc1 [Example 117] please.
100 to 1000 nM

Can you share its EC50? I mean this molecule: CC1Cc2sc(NC(=O)Cc3ccc(S(C)(=O)=O)cc3)c(C#N)c2CN1Cc1cccc(F)c1 (centres unmarked) [Example 69]
< 100 nM

Fill in the blank: the reported EC50 of Cc1ccccc1CN1CCc2c(sc(NC(=O)Cc3ccc(S(N)(=O)=O)cc3)c2C#N)C1 [Example 97] is ____.
100 to 1000 nM

Consider now this further molecule.
Any idea what EC50 was measured for CCOc1cc(CC(=O)Nc2sc3c(c2C#N)CN(Cc2cccc(F)c2)CC3)ccc1S(C)(=O)=O [Example 37] ?
< 100 nM
